Tested on: HT29 colon
Experiment: NCI-60 one-dose screen, 48 h (100 = growth as untreated, 0 = no growth, -100 = all killed)
Conditions: 10 µM unless noted
Compounds without any hit were thinned out: in the full panel of roughly 83,000, 20% have a hit.
EXPERIMENTAL ENDPOINT: growth (%)
Quick note: give the figure in %, leave out the unit.

For the compound shown here, CN(Cc1ccc(C(F)(F)F)cc1)CC(O)C(=O)Nc1ccc(Cl)cc1 (configuration not stated) , give the reported growth. 1.26

Same read-out for CCCCC[C@@H]1Cc2cc(O)c(C(=O)O)c3c2[C@H](C[C@]2(OC[C@@H](CC(=O)[C@@](C)(CC)C(=O)OC)[C@@H]2C)O3)O1 ? 116

Same read-out for Cc1ccc(-n2c(=S)[nH]c3sc4c(c3c2=O)CCC(=O)C4)cc1 ? 55.9

Same read-out for Cc1nc2c(=O)[nH]c(SCC(=O)Nc3cccc(F)c3)nc2[nH]c1=O ? 107

Same read-out for CC(C)OC(=O)c1ccc2[nH]c(O)c(C(=Nc3ccc(N(C)C(=O)CN4CCN(C)CC4)cc3)c3ccccc3)c2c1 ? -48.1

Same read-out for Cc1cc(Cl)ccc1Nc1nc(C(F)(F)F)ccc1C(=O)N/N=C/c1ccc([N+](=O)[O-])cc1 ? -26.6

Same read-out for Nc1ncnc2c1N=C(c1ccc3c(c1)OCO3)CC(c1cccc(Nc3ccnc4cc(Cl)ccc34)c1)N2 (configuration not stated) ? 27.8

====

Test system: BT-549 breast
Experiment: NCI-60 one-dose screen, 48 h (100 = growth as untreated, 0 = no growth, -100 = all killed)
Settings: 10 µM unless noted
The panel holds about 83,000 compounds, 20% with a hit somewhere; the sample as a whole holds those more often. Activity calls are given as the source filed them. The calls were made as follows: active = growth percent below 10; inactive = the rest.
EXPERIMENTAL ENDPOINT: growth

For the compound shown here, COC1=CC(c2ccc[nH]2)=N/C1=C\c1[nH]c(C)c(C(=O)OCc2ccccc2)c1C , give the reported growth. -13.8% (active)

Same read-out for Cc1cc2c([nH]1)CSc1cc(S(=O)(=O)c3ccccc3)c(=O)[nH]c1-2 ? -12.2% [100 µM] (active)

Same read-out for O=C(CCC(=O)N/N=C/c1ccccc1O)N/N=C/c1ccccc1O ? 76.5% (inactive)

Same read-out for O=C(c1ccc(-c2ccccc2)cc1)c1ccc([N+](=O)[O-])cc1 ? 94.5% (inactive)

Same read-out for O=C1c2c(c3c4ccccc4[nH]c3c3ccc4ccccc4c23)C(=O)N1CCN1CCCCC1 ? 78.9% (inactive)

Same read-out for Cc1nc2c(=O)[nH]c(SCC(=O)Nc3cccc(F)c3)nc2[nH]c1=O ? 104% (inactive)

Same read-out for Cc1ccc(C(C(N)=O)C(C(N)=O)c2ccccc2)cc1 (configuration not stated) ? 113% (inactive)

Same read-out for COc1ccc(-c2csc(NC(=O)CSc3nc(-c4ccccc4)cc(=O)[nH]3)n2)cc1 ? 8.89% (active)

Same read-out for COc1cc(-c2nc(SCC(C)C)nc(Nc3cccc4ccccc34)c2C#N)cc(OC)c1OC ? 110% (inactive)

Same read-out for Cc1cc2c(O)c(-c3cccc(Cl)c3)c3sc(=O)oc3c2cc1C ? 58.8% (inactive)

Same read-out for C=C1C(=O)O[C@H]2[C@H]1CC/C(COC(=O)NCc1ccc(Cn3c(=O)sn(CCI)c3=O)cc1)=C\CC[C@@]1(C)O[C@@H]21 ? 69.8% (inactive)

Same read-out for O=C(Cn1cc(CN2C(=O)c3ccccc3S2(=O)=O)nn1)Nc1nc2ccccc2s1 ? 97.9% (inactive)

Same read-out for S=C1CCSC(=S)N1CCCN1C(=S)CCSC1=S ? 89.4% (inactive)

Same read-out for COc1cc(NC(C)CCCNC(C)C)c2ncccc2c1OC (configuration not stated) ? 94.4% (inactive)

Same read-out for C=CCc1c(O)c(C(=O)/C=C/c2ccc(Cl)cc2)c(OC)c2ccoc12 ? 47.8% (inactive)

Same read-out for COc1ccc(-c2ccc3cnc4sc(-c5ccc(OC)cc5)nc4c3n2)cc1 ? 108% (inactive)

Same read-out for Clc1ccc(Sc2cnc(-c3ccccc3)o2)cc1 ? 96.6% (inactive)
